Here the recorded % Inhibition is given for each entry.
- Test system: human SMAD7 mRNA
- methodDescription: Antisense inhibition of human SMAD7 mRNA expression in Hep3B cells by 3-10-3 cEt gapmers, 10,000 nM, electroporation (Example 2)
- Assay type: cell-based
- assayContext: Hep3B cells, 10,000 nM antisense oligonucleotide, electroporation, approximately 24 hours, RT-PCR primer probe set RTS5062, relative to untreated control cells
- Experimental: Antisense oligonucleotides were designed to target human SMAD7 mRNA and were tested for their effects on SMAD7 mRNA expression in vitro. […] After a treatment period of approximately 24 hours, RNA was isolated from the cells and SMAD7 mRNA levels were measured by quantitative real-time PCR. […] SMAD7 mRNA levels were adjusted according to total RNA content, as measured by RIBOGREEN®. […]
Strand notation (5' to 3'): a small letter for the sugar, then the base; units joined by * are phosphorothioate-linked, units joined directly phosphodiester-linked; [ ] holds rarer units or linkages, { } end groups; capitals alone tell only the bases. k = constrained ethyl (cEt); [5mC] = 5-methylcytosine; d = 2'-deoxy (DNA)
Write it as a number; the unit % goes unstated.

>>> recordedvalue("799992 (kG*kG*k[5mC]*dA*d[5mC]*dG*dG*d[5mC]*d[5mC]*dG*d[5mC]*d[5mC]*dT*k[5mC]*k[5mC]*kT; antisense) [compound 799992]")
9
>>> recordedvalue("800030 (kA*kA*kA*d[5mC]*dA*d[5mC]*dA*dG*dT*dT*d[5mC]*d[5mC]*d[5mC]*kT*kG*kA; antisense) [compound 800030]")
0
>>> recordedvalue("799895 (antisense k[5mC]*kT*kG*dA*dG*dA*dG*dT*dG*dT*dA*dG*dG*kA*kG*kA) [compound 799895]")
50

Ask: Quick one: % Inhibition for 799871 (kT*kT*kG*dG*dA*d[5mC]*dA*d[5mC]*dA*d[5mC]*dT*d[5mC]*dA*k[5mC]*kT*kG; antisense) [compound 799871] ?
Reply: 0

Ask: // % Inhibition lookup, key: 790531 (kT*kG*k[5mC]*dT*dG*dA*dT*dG*dA*dA*d[5mC]*dT*dG*kG*k[5mC]*kG; antisense) [compound 790531]
Reply: 8

Ask: Data request, read-out % Inhibition, for 799855 (kA*kG*k[5mC]*d[5mC]*dA*dA*dG*dT*dG*dT*d[5mC]*d[5mC]*dA*kT*k[5mC]*kA; antisense) [compound 799855]
Reply: 52

Ask: // lookup % Inhibition for 800092 (antisense kA*kT*k[5mC]*d[5mC]*dT*dG*dA*dT*dG*dA*dG*dA*dA*kA*kA*k[5mC]) [compound 800092]
Reply: 0

Ask: // % Inhibition lookup, key: 800095 (antisense kA*kG*kT*dT*dA*d[5mC]*dA*dG*dA*dT*d[5mC]*dT*dT*kT*k[5mC]*kA) [compound 800095]
Reply: 47

Ask: Suppose we examine the substance 799970 (kT*k[5mC]*k[5mC]*dT*d[5mC]*dA*dG*dG*dA*dA*dA*d[5mC]*dA*k[5mC]*kA*kG; antisense) [compound 799970] ; what % Inhibition value has been reported?
Reply: 43

Ask: What does the record list as % Inhibition for 799957 (antisense kT*k[5mC]*kT*dG*dA*dG*dG*d[5mC]*dT*d[5mC]*d[5mC]*dT*dG*kG*kG*kT) [compound 799957] ?
Reply: 11

Ask: Returns the measured % Inhibition for the input substance. Input: 799911 (antisense kA*kG*k[5mC]*d[5mC]*dA*dA*d[5mC]*dT*d[5mC]*d[5mC]*dA*dT*dT*k[5mC]*kA*kT) [compound 799911]
Reply: 0

// provenance: patent US10517889B2
